Every entry's value here was drawn from BindingDB's records for doi:10.1016/j.bmcl.2004.03.067.

Experiment: Inhibition of Phosphodiesterase 5
measured endpoint: IC50 (µM)

- COc1cc2c3c(n1)C(c1ccccc1)=NC(NC(=O)c1cccnc1)C(=O)N3CC2 (stereo unspecified): 95
